- Tested on: NCI-H196 complex spheroid growth, percent test/control
- assay_method_text: Anticancer human tumor NCI-H196 cell line growth inhibition [AhR];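 note: seven days of drug exposure starting three days after plating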
- assay_context: compound alone; run of 08/08/2022
- Excerpt: Multicellular complex tumor spheroid response to aryl hydrocarbon receptor antagonists in combination with a variety of drugs and investigational agents in selected tumor cell lines […] Compounds. […] If the clinical Cmax for an agent had not been determined, the highest concentration tested was 10 microM (Table 1). […]
recorded_endpoint: IC50

compound: CC(CO)NC(=O)c1cc(-c2ccc(Cl)cc2)nn(-c2cnn(C)c2)c1=O (stereo unspecified)
result: > 10 µM

* * *

- System: NCI-H196 complex spheroid growth, percent test/control
- assay_method_text: Anticancer human tumor NCI-H196 cell line growth inhibition [AhR]; active means viability on the fitted dose curve at most 10% of control; inactive means the rest;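 note: seven days of drug exposure starting three days after plating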
- assay_context: second compound 1 µM; first compound 3.16 µM
Possible outcomes: YES (active), NO (inactive)

molecule: CC1(C)CCC(CN2CCN(c3ccc(C(=O)NS(=O)(=O)c4ccc(NCC5CCOCC5)c([N+](=O)[O-])c4)c(Oc4cnc5[nH]ccc5c4)c3)CC2)=C(c2ccc(Cl)cc2)C1 + CC(CO)NC(=O)c1cc(-c2ccc(Cl)cc2)nn(-c2cnn(C)c2)c1=O
label: NO

molecule: COc1cc(Nc2ncc3c(n2)-c2ccc(Cl)cc2C(c2c(F)cccc2OC)=NC3)ccc1C(=O)O + CC(CO)NC(=O)c1cc(-c2ccc(Cl)cc2)nn(-c2cnn(C)c2)c1=O
label: NO

molecule: COc1cccc2c1C(=O)c1c(O)c3c(c(O)c1C2=O)CC(O)(C(=O)CO)CC3OC1CC(N)C(O)C(C)O1 (stereo not drawn) + CC(CO)NC(=O)c1cc(-c2ccc(Cl)cc2)nn(-c2cnn(C)c2)c1=O
label: YES
